These measurements were taken from ChEMBL document CHEMBL3297644.

Below, each of the molecules is paired with its reported IC50 value.
study_system: Transient receptor potential cation channel subfamily V member 1 (Homo sapiens, UniProt Q8NER1)
Sequence (Q8NER1 whole entry): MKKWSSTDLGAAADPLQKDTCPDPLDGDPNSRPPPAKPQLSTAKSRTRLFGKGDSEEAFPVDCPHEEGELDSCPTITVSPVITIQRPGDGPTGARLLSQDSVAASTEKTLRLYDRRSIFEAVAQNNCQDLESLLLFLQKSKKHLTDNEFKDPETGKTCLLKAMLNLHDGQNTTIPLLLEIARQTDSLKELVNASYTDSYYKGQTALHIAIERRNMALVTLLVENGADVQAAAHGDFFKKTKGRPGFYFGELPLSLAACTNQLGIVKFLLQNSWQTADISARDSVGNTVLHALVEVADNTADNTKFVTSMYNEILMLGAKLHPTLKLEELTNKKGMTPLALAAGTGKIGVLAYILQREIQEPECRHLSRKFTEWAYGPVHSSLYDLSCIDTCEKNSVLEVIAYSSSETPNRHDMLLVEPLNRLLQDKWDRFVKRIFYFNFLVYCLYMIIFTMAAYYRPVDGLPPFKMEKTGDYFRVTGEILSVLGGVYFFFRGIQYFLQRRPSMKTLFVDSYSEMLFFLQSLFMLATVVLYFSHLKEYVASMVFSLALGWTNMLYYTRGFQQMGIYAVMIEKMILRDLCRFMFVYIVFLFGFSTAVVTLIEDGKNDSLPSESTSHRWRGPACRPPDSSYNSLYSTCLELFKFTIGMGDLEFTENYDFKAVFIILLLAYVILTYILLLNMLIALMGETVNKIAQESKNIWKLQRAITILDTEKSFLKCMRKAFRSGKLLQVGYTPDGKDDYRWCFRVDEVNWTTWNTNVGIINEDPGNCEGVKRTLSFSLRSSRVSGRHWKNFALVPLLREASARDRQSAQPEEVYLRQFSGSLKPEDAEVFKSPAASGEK

{"structure": "Fc1ccc(Oc2nccc3[nH]ccc23)c(F)c1", "IC50": "> 10 µM"}

Q: Look at this molecule and give its reported IC50. Fc1ccc(Oc2ncnc3[nH]ccc23)cc1
Ans: > 10 µM

----------
study_system: UniProtKB P11712
Sequence (P11712 whole entry): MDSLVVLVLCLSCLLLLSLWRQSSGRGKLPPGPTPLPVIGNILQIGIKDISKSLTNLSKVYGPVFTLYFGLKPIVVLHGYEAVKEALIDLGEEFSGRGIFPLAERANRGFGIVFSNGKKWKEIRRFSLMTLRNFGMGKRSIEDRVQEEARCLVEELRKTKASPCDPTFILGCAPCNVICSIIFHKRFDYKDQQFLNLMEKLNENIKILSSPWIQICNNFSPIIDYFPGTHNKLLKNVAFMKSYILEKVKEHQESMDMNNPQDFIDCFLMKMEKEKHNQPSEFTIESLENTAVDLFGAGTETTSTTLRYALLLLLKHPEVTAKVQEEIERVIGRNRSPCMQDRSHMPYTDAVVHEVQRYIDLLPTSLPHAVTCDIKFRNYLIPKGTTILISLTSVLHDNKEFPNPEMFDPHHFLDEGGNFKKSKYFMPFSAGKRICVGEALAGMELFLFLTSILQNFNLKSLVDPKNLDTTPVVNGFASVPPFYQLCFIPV
method_notes: Inhibition of CYP2C9 in human liver microsomes by LC-MS/MS/competitive screening assay
Format: ADME
measurement_type: IC50 (nM)
Supply the numeric figure in nM, leaving out any unit text.

Q: Item COc1cc2ccnc(Oc3ccc(F)cc3)c2cc1OC with UniProtKB P11712 - IC50?
Ans: 1900
